Recorded pIC50 for the following molecules
biological target: rat orexin-1 receptor (Rattus norvegicus (Rat)); assay: FLIPR Ca2+ Flux Assay, orexin-1 receptor; format: cell-based; details: CHO cells expressing the rat orexin-1 receptor; agonist 70 pM Ala-6,12 human orexin-A; read-out: hOX1R FLIPR IC50
Sequence (P56718 whole entry): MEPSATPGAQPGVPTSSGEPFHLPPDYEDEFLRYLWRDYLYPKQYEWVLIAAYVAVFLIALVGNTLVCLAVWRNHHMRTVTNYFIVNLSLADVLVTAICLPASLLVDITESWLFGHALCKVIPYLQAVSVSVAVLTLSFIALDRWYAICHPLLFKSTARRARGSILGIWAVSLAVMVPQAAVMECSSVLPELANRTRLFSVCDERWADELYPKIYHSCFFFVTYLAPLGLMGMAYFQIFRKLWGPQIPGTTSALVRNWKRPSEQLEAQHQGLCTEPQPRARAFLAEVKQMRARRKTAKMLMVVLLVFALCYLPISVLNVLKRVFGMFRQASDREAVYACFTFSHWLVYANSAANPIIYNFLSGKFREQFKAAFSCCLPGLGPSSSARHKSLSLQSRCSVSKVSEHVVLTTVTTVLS
pIC50: −log10 of the molar value.

>  <Smiles string>
Cc1c(C#N)ccnc1O[C@@H]1CC[C@@H](C)N(C(=O)c2ccc(CO)cc2-c2ccccc2)C1

>  <pIC50>
5.86

$$$$
>  <Smiles string>
Cc1c(C#N)ccnc1O[C@@H]1CC[C@@H](C)N(C(=O)c2c(F)cccc2-c2cscn2)C1

>  <pIC50>
6.00

$$$$
>  <Smiles string>
Cc1c(C#N)ccnc1O[C@@H]1CC[C@@H](C)N(C(=O)c2ccc(F)cc2-c2nccs2)C1

>  <pIC50>
6.15

$$$$
>  <Smiles string>
Cc1nnn(-c2ccccc2C(=O)N2C[C@H](Oc3nccc(C#N)c3C)CC[C@H]2C)n1

>  <pIC50>
6.15

$$$$
>  <Smiles string>
Cc1c(C#N)ccnc1O[C@@H]1CC[C@@H](C)N(C(=O)c2ccccc2-n2nccn2)C1

>  <pIC50>
6.00

$$$$
>  <Smiles string>
COc1ccc(C(=O)N2C[C@H](Oc3nccc(C#N)c3C)CC[C@H]2C)c(-c2ccccc2)n1

>  <pIC50>
5.90

$$$$
>  <Smiles string>
Cc1cnn(-c2ccccc2C(=O)N2C[C@H](Oc3nccc(C#N)c3C)CC[C@H]2C)c1

>  <pIC50>
6.14

$$$$
>  <Smiles string>
COc1c(C#N)ccnc1O[C@@H]1CC[C@@H](C)N(C(=O)c2cc(F)ccc2-c2ncccn2)C1

>  <pIC50>
6.02

$$$$
>  <Smiles string>
Cc1c(C#N)ccnc1O[C@@H]1CC[C@@H](C)N(C(=O)c2ccsc2-n2nccn2)C1

>  <pIC50>
5.82

$$$$

----------
target: UniProt O43614; experiment: radioligand binding assay, orexin-2 receptor; conditions: membranes prepared from CHO cells expressing the OX2 receptor; read-out: hOX2R BIND hKi
Label y when Ki < 0.8 nM; otherwise n.

>  <Smiles string>
COc1ccc(C(=O)N2C[C@H](Oc3nccc(C#N)c3C)CC[C@H]2C)c(C2CCC2)n1

>  <Assigned class>
n

$$$$
>  <Smiles string>
Cc1cnn(-c2ccccc2C(=O)N2C[C@H](Oc3nccc(C#N)c3C)CC[C@H]2C)c1

>  <Assigned class>
n

$$$$
>  <Smiles string>
CCOc1ccccc1C(=O)N1C[C@H](Oc2nccc(C#N)c2C)CC[C@H]1C

>  <Assigned class>
y

$$$$
>  <Smiles string>
COc1c(C#N)ccnc1O[C@@H]1CC[C@@H](C)N(C(=O)c2ccccc2-n2ncnn2)C1

>  <Assigned class>
n

$$$$
>  <Smiles string>
Cc1c(C#N)ccnc1O[C@@H]1CC[C@@H](C)N(C(=O)c2ccccc2-n2ncnn2)C1

>  <Assigned class>
n

$$$$
>  <Smiles string>
Cc1nc(-c2ccccc2C(=O)N2C[C@H](Oc3nccc(C#N)c3C)CC[C@H]2C)no1

>  <Assigned class>
n

$$$$
>  <Smiles string>
COc1c(C#N)ccnc1O[C@@H]1CC[C@@H](C)N(C(=O)c2ccc(F)cc2-c2ncccn2)C1

>  <Assigned class>
y

$$$$
>  <Smiles string>
Cc1c(C#N)ccnc1O[C@@H]1CC[C@@H](C)N(C(=O)c2cc(F)ccc2-c2cscn2)C1

>  <Assigned class>
y

$$$$
>  <Smiles string>
Cc1ccc(C(=O)N2C[C@H](Oc3nccc(C#N)c3C)CC[C@H]2C)c(C2CC2)c1

>  <Assigned class>
y

$$$$
>  <Smiles string>
Cc1c(C#N)ccnc1O[C@@H]1CC[C@@H](C)N(C(=O)c2ccc(F)cc2C2CC2)C1

>  <Assigned class>
n

$$$$
>  <Smiles string>
COc1ccc(C(=O)N2C[C@H](Oc3nccc(C#N)c3C)CC[C@H]2C)c(-c2ccccn2)n1

>  <Assigned class>
n

$$$$

----------
molecular target: human orexin-2 receptor (Homo sapiens (Human), UniProt O43614); experiment: radioligand binding assay, orexin-2 receptor; settings: membranes prepared from CHO cells expressing the OX2 receptor; read-out: hOX2R BIND hKi
Sequence (O43614 whole entry): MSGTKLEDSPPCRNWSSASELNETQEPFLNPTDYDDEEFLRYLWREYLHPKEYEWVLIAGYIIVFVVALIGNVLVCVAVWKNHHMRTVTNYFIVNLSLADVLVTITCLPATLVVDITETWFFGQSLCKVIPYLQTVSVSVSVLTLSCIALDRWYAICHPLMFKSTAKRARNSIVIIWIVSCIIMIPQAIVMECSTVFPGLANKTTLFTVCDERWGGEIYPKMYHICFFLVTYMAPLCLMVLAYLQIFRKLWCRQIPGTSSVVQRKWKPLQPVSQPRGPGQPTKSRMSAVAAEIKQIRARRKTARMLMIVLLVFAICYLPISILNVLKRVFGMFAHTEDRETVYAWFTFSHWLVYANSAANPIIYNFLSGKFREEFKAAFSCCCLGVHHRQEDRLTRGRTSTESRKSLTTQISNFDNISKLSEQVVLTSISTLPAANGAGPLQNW
pKi: −log10 of the molar value.
Classification field: enter True for pKi values not below 9, False for values below it.

>  <Smiles string>
Cc1c(C#N)ccnc1O[C@@H]1CC[C@@H](C)N(C(=O)c2cc(F)ncc2-c2cncs2)C1

>  <Tested target>
human orexin-2 receptor (Homo sapiens (Human), UniProt O43614)

>  <Assigned class>
False

$$$$
>  <Smiles string>
COc1cccc(-n2nccn2)c1C(=O)N1C[C@H](Oc2nccc(C#N)c2C)CC[C@H]1C

>  <Tested target>
human orexin-2 receptor (Homo sapiens (Human), UniProt O43614)

>  <Assigned class>
True

$$$$
>  <Smiles string>
CCc1ccccc1C(=O)N1C[C@H](Oc2nccc(C#N)c2C)CC[C@H]1C

>  <Tested target>
human orexin-2 receptor (Homo sapiens (Human), UniProt O43614)

>  <Assigned class>
False

$$$$
>  <Smiles string>
Cc1c(C#N)ccnc1O[C@@H]1CC[C@@H](C)N(C(=O)c2ccccc2-c2nccs2)C1

>  <Tested target>
human orexin-2 receptor (Homo sapiens (Human), UniProt O43614)

>  <Assigned class>
True

$$$$
>  <Smiles string>
Cc1c(C#N)ccnc1O[C@@H]1CC[C@@H](C)N(C(=O)c2ccc(OCF)cc2-n2nccn2)C1

>  <Tested target>
human orexin-2 receptor (Homo sapiens (Human), UniProt O43614)

>  <Assigned class>
False

$$$$
>  <Smiles string>
Cc1c(C#N)ccnc1O[C@@H]1CC[C@@H](C)N(C(=O)c2cn(C)nc2-c2ccccc2)C1

>  <Tested target>
human orexin-2 receptor (Homo sapiens (Human), UniProt O43614)

>  <Assigned class>
False

$$$$
>  <Smiles string>
Cc1c(C#N)ccnc1O[C@@H]1CC[C@@H](C)N(C(=O)c2cc(F)cnc2-c2nccs2)C1

>  <Tested target>
human orexin-2 receptor (Homo sapiens (Human), UniProt O43614)

>  <Assigned class>
True

$$$$
>  <Smiles string>
Cc1c(C#N)ccnc1O[C@@H]1CC[C@@H](C)N(C(=O)c2cc(F)ccc2-c2nccs2)C1

>  <Tested target>
human orexin-2 receptor (Homo sapiens (Human), UniProt O43614)

>  <Assigned class>
True

$$$$
>  <Smiles string>
Cc1c(C#N)ccnc1O[C@@H]1CC[C@@H](C)N(C(=O)c2ncccc2-c2cscn2)C1

>  <Tested target>
human orexin-2 receptor (Homo sapiens (Human), UniProt O43614)

>  <Assigned class>
False

$$$$
>  <Smiles string>
COc1c(C#N)ccnc1O[C@@H]1CC[C@@H](C)N(C(=O)c2ccc(F)cc2-n2nccn2)C1

>  <Tested target>
human orexin-2 receptor (Homo sapiens (Human), UniProt O43614)

>  <Assigned class>
True

$$$$
>  <Smiles string>
COc1ccc(C(=O)N2C[C@H](Oc3nccc(C#N)c3C)CC[C@H]2C)c(-c2cccnc2)n1

>  <Tested target>
human orexin-2 receptor (Homo sapiens (Human), UniProt O43614)

>  <Assigned class>
False

$$$$
>  <Smiles string>
COc1ccc(C(=O)N2C[C@H](Oc3nccc(C#N)c3C)CC[C@H]2C)c(C2CC2)c1

>  <Tested target>
human orexin-2 receptor (Homo sapiens (Human), UniProt O43614)

>  <Assigned class>
False

$$$$
>  <Smiles string>
Cc1c(C#N)ccnc1O[C@@H]1CC[C@@H](C)N(C(=O)c2cnccc2-n2nccn2)C1

>  <Tested target>
human orexin-2 receptor (Homo sapiens (Human), UniProt O43614)

>  <Assigned class>
False

$$$$
>  <Smiles string>
Cc1c(C#N)ccnc1O[C@@H]1CC[C@@H](C)N(C(=O)c2sncc2-c2ccccc2)C1

>  <Tested target>
human orexin-2 receptor (Homo sapiens (Human), UniProt O43614)

>  <Assigned class>
False

$$$$
>  <Smiles string>
Cc1c(C#N)ccnc1O[C@@H]1CC[C@@H](C)N(C(=O)c2ccccc2Oc2ccccc2)C1

>  <Tested target>
human orexin-2 receptor (Homo sapiens (Human), UniProt O43614)

>  <Assigned class>
False

$$$$
>  <Smiles string>
COc1c(C#N)ccnc1O[C@@H]1CC[C@@H](C)N(C(=O)c2ccccc2-c2ncccn2)C1

>  <Tested target>
human orexin-2 receptor (Homo sapiens (Human), UniProt O43614)

>  <Assigned class>
True

$$$$
>  <Smiles string>
Cc1c(C#N)ccnc1O[C@@H]1CC[C@@H](C)N(C(=O)c2ccncc2-c2ccccc2)C1

>  <Tested target>
human orexin-2 receptor (Homo sapiens (Human), UniProt O43614)

>  <Assigned class>
False

$$$$
>  <Smiles string>
COc1c(C#N)ccnc1O[C@@H]1CC[C@@H](C)N(C(=O)c2cccc(C)c2-n2nccn2)C1

>  <Tested target>
human orexin-2 receptor (Homo sapiens (Human), UniProt O43614)

>  <Assigned class>
True

$$$$
